- System: MS2 coat protein
- Test Description: apparent KD of MS2 coat protein; designed switch direction (-1 OFF switch, 1 ON switch): 1; higher = weaker reporter binding
- Measurement Parameters: input ligand: FMN 200 uM
Here, each record is paired with measured apparent KD of MS2 coat protein data.

Sequence Input | Data Value
GAGGGCGAAAGCAACAUGAGGAUCACCCAUGUCCUCGGAGGGCAGGAUAUCCGGCGGUAGCCGAAGGAGAAGGGUCGGUAAACC [AK SSNG3-V2-33] (Eterna round: R96, puzzle: Same State NG 3) | 258 nM

Consider now this further sequence.
Given the sequence UUGCGGGCUUGAGGAUAUUGAGUACAUAUGUUUAACAUGAGGAUCACCCAUGUGGGUUGCGGUAUCGAGAAGGUAACUUCCUGC [salish99_SSNG2_r04_811] (Eterna round: R96, puzzle: Same State NG 2) and test system MS2 coat protein, the measured apparent KD of MS2 coat protein is 100 nM

----------
- System: K4 kissing-loop RNA reporter;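 further: bound reporter read as fluorescence of individual clusters on recovered sequencing chips by microscopy, with normalized cluster intensities fitted with a binding model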
- Test Description: apparent KD of K4 kissing-loop reporter; higher = weaker reporter binding
- Measurement Parameters: Eterna round: R107; input ligand: arginine 13.2 mM
Here, each record is paired with measured apparent KD of K4 kissing-loop reporter data.
State just the number; it will be interpreted in nM.

Below, each entry is followed by its recorded apparent KD of K4 kissing-loop reporter result.
Sequence Input | apparent KD of K4 kissing-loop reporter [nM]
AAGGUCACUACUACAGUGAUGUUGUGGGAGCAGGAUAUGCAGAAAUGCAGAAGGGCUCGCUCCAGGUGACCGAAUGAAACAUUCA [whbob_SS_FMNA__2th174] | 882
UGUCAUUGGUCUGAUACCAGCUUGAUCGGAAAACGAUCUGCUGGAGUGAUGUUCCAAUAAAGCCCUUGGCAGCAGACCGAUGACU [TheoBS 7 #SwitchBubble #StaticStem] | 569
UUUUUGGUUUAGAGUGAUGUUCCUUGUAAUCGAGGACCGGUACGGCCGCCACUCGAUUAGAAAAGAAAAGAAAAGAGUGAUGUUU [BDazzled - #2 SS Tryptophan A] | 229
CGAUAUAAGAAUAUAUAUCUCUAUUCAGAAGGAGCGUGUUUGUACACAGGUAGGUCGCUGAAAUUUAAACUAGUGAUGUUAGACU [JR_SSArginiA_Sub002] | 878
AUGUACAUUCUCAGUGAUGUUGGGUUGUAACGAGGACCGGUACGGCCGCCACUCGGGAUGUGGUAUAUAGAUGUAUGUGUAGCAU [skye_SS_TA] | 271

Consider now this further sequence.
Reported apparent KD of K4 kissing-loop reporter ( UGACUGGACUGAAGGAGCGCUAAAACUCCUAGUGAUGUUGGGAAAACGAGACAAAGUCUCGAGCAGGUAGGUCGCAGUCUAGUCU [ArgBS 22 #SwitchBubble #StaticStem] ) = 196

----------
- Test system: MS2 coat protein
- Test Description: apparent KD of MS2 coat protein; higher = weaker reporter binding
- Measurement Parameters: Eterna round: R107; input ligand: arginine 13.2 mM
Here, each record is paired with measured apparent KD of MS2 coat protein data.
State just the number; it will be interpreted in nM.

Below, each entry is followed by its recorded apparent KD of MS2 coat protein result.
Sequence Input | Experimental System | Measurement Unit | apparent KD of MS2 coat protein
ACAUGAGGAUCACCCAUGUAUUACCGGGAAGGAGCGCGUAAGGACGCAGGUAGGUCGCUCGGCGUCCGGCCGCAAGGCUGGACGA [#1 Same State - Arginine A Attempt #17 (HarryS)] | MS2 coat protein | nM | 12.3
AAUGUCGGAUCGGCCGCCACUGGUUGGCCCUGUGUACAUGAGGAUCACCCAUGUCCAUCCCAAACCAGGACCGGGAUCUUUAUGU [Xeananor] | MS2 coat protein | nM | 37.9
UGGUACAUGAGGAUCACCCAUGUUCCAGAUACCAGAUACCCGGUUAUCCCUUGGCAGCUGGUGUUACAUGAGGAUCACCCAUGUU [Exclusion Theophylline A GF16] | MS2 coat protein | nM | 23.9

Reported apparent KD of MS2 coat protein ( UCUAACAUGAGGAUCACCCAUGUACCGUCCCGAGGACCGGUACGGCCGCCACUCGUCUUGCUAAAACUGAAGUGAUCACAAGCCU [theeternabot_sameState_MS2_Trp_A_2] ) = 25.2

Reported apparent KD of MS2 coat protein ( UGUACUAUGUGAAGGAGCGAGAAUCCUACAUGAGGAUCACCCAUGUAAGAGCGAAAGCUCACUCAGGUAGGUCGCACAUAGUACU [#17 Same State - Arginine B] ) = 31.7
